Measured pKa accompanies every entry in the list below.
assay: pKa values of boronic acids and diols (literature values and estimates by analogy); type: physicochemical; details: estimated by analogy, β-ammonium ion influence

CCCCCCCCCCCCC/C=N/OCC[N+](C)(CCO/N=C/CCCCCCCCCCCCC)CC(O)CO (centres unmarked) [OEL4, reference compound] : ~12

Consider the additional compound presented here.
Briefly, pKa measured for CCCCCCCCCCCCCC(=O)OCC(C[N+](C)(C)CB(O)O)OC(=O)CCCCCCCCCCCCC.[Br-] (centres unmarked) : ~7
